- experimental target: T1, LRP1 CR3-5 (human)
- T1 construct: range 852-973; also called L1 CR3-5; LRP1 CR3-S [sic]
- T1 sequence (Q07954 852-973): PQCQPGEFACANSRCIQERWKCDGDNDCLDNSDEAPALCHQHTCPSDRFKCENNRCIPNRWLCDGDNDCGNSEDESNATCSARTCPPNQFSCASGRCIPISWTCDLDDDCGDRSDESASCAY
- experiment: solid-phase assay, coated CR protein
Recorded % max binding by entry
Provide the reading as a plain figure in %.

Please review the following examples before continuing.
- RAP d3 (wild-type third domain of the receptor-associated protein) (ligand, human, UniProt P30533 235-353, looked up, range 201-319 (mature RAP numbering); Expressed in E. coli from pET30(+)a; also called wild-type RAP d3; not shown: N-terminal hexahistidine and S-peptide tags of pET30(+)a) LDRLRRVSHQGYSTEAEFEEPRVIDLWDLAQSANLTDKELEAFREELKHFEAKIEKHNHYQKQLEIAHEKLRHAESVGDGERVSRSREKHALLEGRTKELGYTVKKHLQDLSGRISRAR: 76
- MegaRAP1 d3 K217E revertant (designed binder) LDRLRRVSHQGYTTEAEFEEPRVIDLWDLAQSANLTDKELEAFREELKYFKAKIEAHNHYQKQLEIAHEELRHAESVGDGERVSRSREKHALLEGRTKELGYTVKKHLQDLSGRISRAR: 2
- RAP d3 E251K (ligand, human, UniProt P30533 235-353, looked up, range 201-319 (mature RAP numbering); Forward mutant of m1; same construct; also called RAP E251K; not shown: N-terminal hexahistidine and S-peptide tags of pET30(+)a) LDRLRRVSHQGYSTEAEFEEPRVIDLWDLAQSANLTDKELEAFREELKHFKAKIEKHNHYQKQLEIAHEKLRHAESVGDGERVSRSREKHALLEGRTKELGYTVKKHLQDLSGRISRAR: 100
- RAP d3 K270E (ligand, human, UniProt P30533 235-353, looked up, range 201-319 (mature RAP numbering); Forward mutant of m1; same construct; also called RAP K270E; not shown: N-terminal hexahistidine and S-peptide tags of pET30(+)a) LDRLRRVSHQGYSTEAEFEEPRVIDLWDLAQSANLTDKELEAFREELKHFEAKIEKHNHYQKQLEIAHEELRHAESVGDGERVSRSREKHALLEGRTKELGYTVKKHLQDLSGRISRAR: 4

# input Which measured % max binding value corresponds to MegaRAP1 d3 T213S revertant (designed binder) LDRLRRVSHQGYSTEAKFEEPRVIDLWDLAQSANLTDKELEAFREELKYFKAKIEAHNHYQKQLEIAHEELRHAESVGDGERVSRSREKHALLEGRTKELGYTVKKHLQDLSGRISRAR ?
# output 2

# input Which measured % max binding value corresponds to MegaRAP1 d3 E270K revertant (designed binder) LDRLRRVSHQGYTTEAKFEEPRVIDLWDLAQSANLTDKELEAFREELKYFKAKIEAHNHYQKQLEIAHEKLRHAESVGDGERVSRSREKHALLEGRTKELGYTVKKHLQDLSGRISRAR ?
# output 85

# input Which measured % max binding value corresponds to RAP d3 H249Y (ligand, human, UniProt P30533 235-353, looked up, range 201-319 (mature RAP numbering); Forward mutant of m1; same construct; also called RAP H249Y; not shown: N-terminal hexahistidine and S-peptide tags of pET30(+)a) LDRLRRVSHQGYSTEAEFEEPRVIDLWDLAQSANLTDKELEAFREELKYFEAKIEKHNHYQKQLEIAHEKLRHAESVGDGERVSRSREKHALLEGRTKELGYTVKKHLQDLSGRISRAR ?
# output 90

# input Which measured % max binding value corresponds to MegaRAP1 d3 K251E, E270K double revertant (designed binder) LDRLRRVSHQGYTTEAKFEEPRVIDLWDLAQSANLTDKELEAFREELKYFEAKIEAHNHYQKQLEIAHEKLRHAESVGDGERVSRSREKHALLEGRTKELGYTVKKHLQDLSGRISRAR ?
# output 16
